# Experimental system: hmGluR1 receptor (Homo sapiens, UniProt Q13255)
# Construct: expressed in transfected cells
# Sequence (Q13255 19-1194): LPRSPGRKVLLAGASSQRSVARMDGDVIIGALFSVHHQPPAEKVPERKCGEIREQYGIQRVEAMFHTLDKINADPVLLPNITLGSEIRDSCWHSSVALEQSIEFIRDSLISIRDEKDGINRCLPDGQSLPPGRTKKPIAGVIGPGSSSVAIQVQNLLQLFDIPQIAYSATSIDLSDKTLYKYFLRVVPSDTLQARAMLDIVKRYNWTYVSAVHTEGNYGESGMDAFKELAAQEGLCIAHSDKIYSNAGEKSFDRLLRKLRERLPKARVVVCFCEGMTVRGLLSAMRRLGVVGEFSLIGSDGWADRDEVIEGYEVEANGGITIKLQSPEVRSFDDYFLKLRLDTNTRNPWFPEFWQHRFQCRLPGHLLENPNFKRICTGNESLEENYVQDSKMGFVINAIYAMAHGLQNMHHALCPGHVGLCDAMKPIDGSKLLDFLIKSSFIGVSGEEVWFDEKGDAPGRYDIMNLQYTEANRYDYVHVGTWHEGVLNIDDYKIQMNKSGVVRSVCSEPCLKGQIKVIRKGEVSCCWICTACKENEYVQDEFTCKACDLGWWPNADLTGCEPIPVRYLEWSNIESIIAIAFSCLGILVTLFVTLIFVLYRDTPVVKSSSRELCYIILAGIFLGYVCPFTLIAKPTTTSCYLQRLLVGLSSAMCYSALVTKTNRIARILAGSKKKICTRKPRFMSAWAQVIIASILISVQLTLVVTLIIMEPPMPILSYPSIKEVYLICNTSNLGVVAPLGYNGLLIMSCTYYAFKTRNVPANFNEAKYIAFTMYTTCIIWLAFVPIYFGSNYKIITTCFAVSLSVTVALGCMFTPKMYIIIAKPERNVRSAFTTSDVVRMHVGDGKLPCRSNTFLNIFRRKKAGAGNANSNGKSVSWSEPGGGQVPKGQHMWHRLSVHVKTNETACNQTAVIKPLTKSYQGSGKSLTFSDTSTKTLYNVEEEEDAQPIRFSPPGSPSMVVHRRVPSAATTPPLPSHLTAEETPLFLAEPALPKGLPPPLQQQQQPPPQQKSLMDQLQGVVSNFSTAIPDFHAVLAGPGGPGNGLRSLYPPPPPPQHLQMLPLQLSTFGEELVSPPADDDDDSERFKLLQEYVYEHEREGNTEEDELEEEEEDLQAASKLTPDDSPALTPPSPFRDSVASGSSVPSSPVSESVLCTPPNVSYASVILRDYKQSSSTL
# Protocol summary: IC50 determination: intracellular calcium mobilization (FLIPR) upon Quisqualate stimulation in CHO cells stably expressing hmGluR1
# Type: cell-based
# Condition details: against Quisqualate 1 μM (EC80), class symbols, read-out: mGIuR 1 IC50
# Procedure: A CHO cell line stably expressing hmGluR1 receptor was established. One day prior to assay, cells were split in growth media at concentration of 50,000 cells/well in a volume of 100 μl and seeded into black clear-bottom 96-well plates. After two to six hours, when cells were well attached to the plate, growth medium was replaced with assay medium (100 μL) consisting of DMEM high glucose, supplemented with GPT (1 U/mL) and Sodium pyruvate, 1 mM. […]
Parameter: IC50

Would you please look over these solved cases?
O=c1c2sc3nccc(NC4CCCC4)c3c2ncn1C1CCCCC1 [28T]
> 1000 nM
CN(C)c1ccnc2c1c1ncn(C3CCCCC3)c(=O)c1n2C [134G]
> 1000 nM
CN(C)c1ccnc2sc3c(=O)n(CCO)cnc3c12 [15A]
> 1000 nM
CN(C)c1ccnc2sc3c(=O)n(-c4ccc5c(c4)CCO5)cnc3c12
< 50 nM
CN(C)c1ccnc2sc3c(=O)n(CC4CC4)cnc3c12 [15B]
150 to 1000 nM

Asked: Form: Entry = O=c1c2sc3nccc(NC4CCCCC4)c3c2ncn1C1CCCCC1 [28C] | System = hmGluR1 receptor (Homo sapiens, UniProt Q13255) | IC50 = ____
Given back: > 1000 nM

Asked: Try this compound next: CN(C)c1ccnc2sc3c(=O)n(CCN4CCCCC4)cnc3c12 [15O]
Given back: > 1000 nM

Asked: Try this compound next: Cc1cc(-n2cnc3c(sc4nccc(N(C)C)c43)c2=O)ccc1Br
Given back: < 50 nM

Asked: Try this compound next: CN(C)c1ccnc2sc3c(=O)n(-c4cccc(Br)c4)cnc3c12
Given back: < 50 nM

Asked: Try this compound next: Cc1ccc(-n2cnc3c(sc4cccc(N(C)C)c43)c2=O)cc1 [103D]
Given back: 50 to 150 nM

Asked: Try this compound next: CN(C)c1ccnc2sc3c(=O)n(-c4ccc(Br)c(C(F)(F)F)c4)cnc3c12
Given back: 150 to 1000 nM

Asked: Try this compound next: CCCN(C)c1ccnc2sc3c(=O)n(-c4ccc(C)cc4)c(C)nc3c12 [113M]
Given back: 50 to 150 nM

Asked: Try this compound next: Cc1ccc(F)c(-n2cnc3c(sc4nccc(N(C)C)c43)c2=O)c1
Given back: < 50 nM

* * *

Examples of compounds with documented IC50 follow.
# Experimental system: hmGluR1 receptor (Homo sapiens, UniProt Q13255)
# Construct: expressed in transfected cells
# Protocol summary: IC50 determination: intracellular calcium mobilization (FLIPR) upon Quisqualate stimulation in CHO cells stably expressing hmGluR1
# Format: cell-based
# Condition details: against Quisqualate 1 μM (EC80), FLIPR calcium mobilization, read-out: IC50 Class

Would you please look over these solved cases?
CC#Cc1ccnc2sc3c(=O)n(-c4ccc(Cl)cc4)cnc3c12 [compound 177]
> 1000 nM
CN(CC(O)CO)c1ccnc2sc3c(=O)n(-c4ccc(Cl)cc4)cnc3c12 (centres unmarked) [28HQ]
50 to 150 nM
C=CCN(C)c1ccnc2sc3c(=O)n(-c4ccc(Cl)cc4)cnc3c12 [28DZ]
< 50 nM
Cc1ccc(-n2cnc3c(sc4nccc(NC5CCOCC5)c43)c2=O)cc1 [28DG]
150 to 1000 nM
COCCCNc1ccnc2sc3c(=O)n(-c4ccc(Cl)cc4)cnc3c12 [28GN]
< 50 nM
CN(CCO)c1ccnc2sc3c(=O)n(-c4ccc(Cl)cc4)cnc3c12 [28HG]
< 50 nM
COCCCNc1ccnc2sc3c(=O)n(-c4ccc(Br)cc4)cnc3c12 [28GR]
< 50 nM
Cc1ccc(-n2cnc3c(sc4nccc(N(C)NS(C)(=O)=O)c43)c2=O)cc1 [73J]
150 to 1000 nM
CNc1ccnc2sc3c(=O)n(-c4ccc(OC)cc4F)cnc3c12 [28BK]
< 50 nM
CCOC(=O)c1cnc2sc3c(=O)n(-c4ccc(OC)cc4)cnc3c2c1 [144B]
> 1000 nM

Asked: Fill blank: measured IC50 of the compound COc1ccnc2sc3c(=O)n(-c4ccc5c(c4)OCCO5)cnc3c12 [161B] is ____.
Given back: > 1000 nM

* * *

Examples of compounds with documented pIC50 follow.
# Experimental system: hmGluR1 receptor (Homo sapiens)
# Construct: expressed in transfected cells
# Protocol summary: IC50 determination: intracellular calcium mobilization (FLIPR) upon Quisqualate stimulation in CHO cells stably expressing hmGluR1
# Type: cell-based
# Condition details: against Quisqualate 1 μM (EC80), FLIPR calcium mobilization, read-out: IC50 Class
pIC50: −log10 of the molar value.

Would you please look over these solved cases?
COCCn1cnc2c(sc3ncnc(NC4CCC4)c32)c1=O [95DW]
< 6.00
Cc1ccc(-n2cnc3c(sc4ncc(I)c(N)c43)c2=O)cc1
> 7.30
O=c1c2sc3nccc(NCCCO)c3c2ncn1-c1ccc2c(c1)CCO2 [28CJ]
> 7.30
C=C(C)CNc1ncnc2sc3c(=O)n(-c4ccc(Br)cc4)cnc3c12 [95FA]
> 7.30
CCc1ccnc2sc3c(=O)n(-c4ccc(C)cc4)cnc3c12 [29G]
> 7.30
C=CCNc1ccnc2sc3c(=O)n(-c4ccc(Br)cc4)cnc3c12 [28DR]
> 7.30
COc1ccnc2sc3c(=O)n(-c4ccc(Cl)cc4Cl)cnc3c12 [28FV]
< 6.00
O=c1c2sc3ncnc(NC4CCC4)c3c2ncn1-c1ccc(F)cc1 [95DF]
6.00 to 6.82

Asked: Fill blank: measured pIC50 of the compound CNc1ccnc2sc3c(=O)n(-c4ccc(Cl)cc4)cnc3c12 is ____.
Given back: > 7.30

Asked: Try this compound next: CC(C)c1ccnc2sc3c(=O)n(-c4ccc(Cl)cc4)cnc3c12 [29J]
Given back: > 7.30

Asked: Try this compound next: CNc1ccnc2sc3c(=O)n(-c4ccc(OC)cc4C)cnc3c12 [28BN]
Given back: > 7.30

Asked: Try this compound next: COCCNc1ccnc2sc3c(=O)n(-c4ccc(Br)cc4)cnc3c12 [28GO]
Given back: > 7.30

Asked: Try this compound next: Cc1ccc(-n2cnc3c(sc4nccc(NC5CCC(O)CC5)c43)c2=O)cc1 (stereo not shown) [28DE]
Given back: 6.00 to 6.82

Asked: Try this compound next: COc1ccc(-n2cnc3c(sc4ncnc(Nc5ccccn5)c43)c2=O)cc1 [190K]
Given back: 6.00 to 6.82

Asked: Try this compound next: CCN(C)c1ccnc2sc3c(=O)n(-c4ccc5c(c4)OCCO5)cnc3c12 [28CG]
Given back: > 7.30

Asked: Try this compound next: CN(C)c1ccnc2sc3c(=O)n(-c4ccc(OS(C)(=O)=O)cc4)cnc3c12
Given back: 6.82 to 7.30

* * *

# Experimental system: hmGluR1 receptor (Homo sapiens)
# Construct: expressed in transfected cells
# Protocol summary: IC50 determination: intracellular calcium mobilization (FLIPR) upon Quisqualate stimulation in CHO cells stably expressing hmGluR1
# Format: cell-based
# Condition details: against Quisqualate 1 μM (EC80), FLIPR calcium mobilization, read-out: IC50 Class
pIC50: −log10 of the molar value.
Examples of compounds with documented pIC50 follow.

Would you please look over these solved cases?
COCCCNc1ccnc2sc3c(=O)n(-c4ccc(OS(=O)(=O)C(F)(F)F)cc4)cnc3c12 [28HX]
6.00 to 6.82
COc1ccc(-n2cnc3c(sc4ncc(Cl)c(N(C)C)c43)c2=O)cc1
> 7.30
CNc1cccc2sc3c(=O)n(-c4ccc(Cl)cc4)cnc3c12 [103R]
6.00 to 6.82
C=CCNc1ncnc2sc3c(=O)n(-c4ccc(Cl)cc4)cnc3c12 [95BP]
> 7.30
COc1ccc(-n2cnc3c(sc4nccc(N(C)CC(O)CO)c43)c2=O)cc1 (stereo not drawn) [28HV]
> 7.30

Asked: Fill blank: measured pIC50 of the compound O=c1c2sc3nccc(N4CCCC4)c3c2ncn1-c1ccc(Cl)cc1 [28GF] is ____.
Given back: > 7.30

Asked: Try this compound next: O=c1c2sc3nccc(NC4CC4)c3c2ncn1-c1ccc(C2CC2)cc1 [137I]
Given back: 6.00 to 6.82

Asked: Try this compound next: COc1ccc(Nc2ccnc3sc4c(=O)n(-c5ccc(OC)cc5)cnc4c23)cc1 [28FP]
Given back: 6.00 to 6.82

Asked: Try this compound next: CN(CCO)c1ccnc2sc3c(=O)n(-c4ccc5occc5c4)cnc3c12 [28BE]
Given back: > 7.30

* * *

# Experimental system: hmGluR1 receptor (Homo sapiens)
# Construct: expressed in transfected cells
# Protocol summary: IC50 determination: intracellular calcium mobilization (FLIPR) upon Quisqualate stimulation in CHO cells stably expressing hmGluR1
# Format: cell-based
# Condition details: against Quisqualate 1 μM (EC80), FLIPR calcium mobilization, read-out: IC50 Class
Parameter: IC50

C=C(C)CNc1ccnc2sc3c(=O)n(-c4ccc(OC)c(F)c4)cnc3c12 [28FE]
50 to 150 nM

Asked: Form: Entry = COC[C@H](C)Nc1ccnc2sc3c(=O)n(-c4ccc(Br)cc4)cnc3c12 [28GZ] | System = hmGluR1 receptor (Homo sapiens) | IC50 = ____
Given back: > 1000 nM

Asked: Try this molecule next: CNc1cc(O)nc2sc3c(=O)n(-c4ccc(C)cc4)cnc3c12 [172B]
Given back: < 50 nM

Asked: Try this molecule next: C=C(C)CNc1ncnc2sc3c(=O)n(-c4ccc(Cl)cc4)cnc3c12 [95EZ]
Given back: < 50 nM

Asked: Try this molecule next: O=c1c2sc3nccc(NCCCO)c3c2ncn1-c1ccc(Cl)cc1 [28GD]
Given back: < 50 nM
